System: S. aureus ATCC 25923
assayProcedure: microbe, parasite or virus in culture
testParameters: ATCC 25923, 18 h
Where a SMILES comes first, the peptide text is derived from it. Bridges are numbered along the chain shown (N, C = ends). [ ]: non-standard residue; d: D form. The star is where a group is joined. dDab = NCC[C@@H](N)C(=O)O; hSer = N[C@@H](CCO)C(=O)O; Octanoyl = CCCCCCCC(=O)*; Dab = NCC[C@H](N)C(=O)O
# MIC S. aureus ATCC 25923 per record follows

compound	result
CCCCCCCC(=O)N[C@H](C(=O)N[C@@H](CCO)C(=O)N[C@H]1CCNC(=O)[C@H]([C@@H](C)O)NC(=O)[C@H](CCN)NC(=O)[C@H](CCN)NC(=O)[C@H](CC(C)C)NC(=O)[C@@H](Cc2ccccc2)NC(=O)[C@H](CCN)NC1=O)[C@@H](C)O [Compound 37] (Octanoyl-T[hSer][Dab][Dab][dF]L[Dab][Dab]T; lactam 3-C)	>32 µg/mL

Here is another compound to look at.
Q: Give MIC S. aureus ATCC 25923 for the following compound: CCCCCCCC(=O)N[C@@H](CC(N)=O)C(=O)N[C@H](CCN)C(=O)N[C@H]1CCNC(=O)[C@H]([C@@H](C)O)NC(=O)[C@H](CCN)NC(=O)[C@H](CCN)NC(=O)[C@H](CC(C)C)NC(=O)[C@@H](Cc2ccccc2)NC(=O)[C@H](CCN)NC1=O [Compound 28] (Octanoyl-N[dDab][Dab][Dab][dF]L[Dab][Dab]T; lactam 3-C)
Result: >32 µg/mL
